Sourced from ChEMBL document CHEMBL4316594

target under test: Tyrosine-protein phosphatase non-receptor type 1 (Homo sapiens, UniProt P18031)
Sequence (P18031 whole entry): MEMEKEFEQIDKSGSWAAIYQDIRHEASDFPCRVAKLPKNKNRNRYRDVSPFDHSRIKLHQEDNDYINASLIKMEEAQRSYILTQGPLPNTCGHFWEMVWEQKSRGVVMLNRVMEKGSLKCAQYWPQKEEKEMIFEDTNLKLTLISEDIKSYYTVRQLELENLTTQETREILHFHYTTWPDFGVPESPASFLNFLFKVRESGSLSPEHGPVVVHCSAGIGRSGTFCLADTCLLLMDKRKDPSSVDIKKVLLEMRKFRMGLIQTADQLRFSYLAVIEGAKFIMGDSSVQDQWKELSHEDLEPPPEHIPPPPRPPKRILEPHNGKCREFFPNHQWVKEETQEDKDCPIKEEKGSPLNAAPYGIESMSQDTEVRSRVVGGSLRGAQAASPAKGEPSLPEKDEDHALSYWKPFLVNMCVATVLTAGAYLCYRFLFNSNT
protocol notes: Inhibition of recombinant human PTP1B expressed in Escherichia coli using pNPP as substrate preincubated for 30 mins followed by substrate addition for 45 mins and measured at 5 mins interval for 30 mins
test readout: IC50 (µM)
The reply should be a number in µM, with the unit left off.

{"structure notation": "Cc1cccc(C[C@H]2O[C@]3(C)O[C@@]24[C@@H]([C@@H](O)[C@H](O)C4(C)C)[C@@H]3C)c1", "readout units": "µM", "measured value": 23}

*Q* I would be grateful if you could share the reported IC50 for Cc1cccc(C[C@H]2O[C@]3(C)O[C@@]24[C@@H]([C@@H](O)[C@H](O)C4(C)C)[C@H]3C)c1 .
*A* 32.2

###

pIC50 listing for selected compounds.
target under test: Tyrosine-protein phosphatase non-receptor type 1 (Homo sapiens, UniProt P18031)
protocol notes: Inhibition of recombinant human PTP1B expressed in Escherichia coli using pNPP as substrate preincubated for 10 mins followed by substrate addition for 30 mins and measured at 5 mins interval for 30 mins
In textbook form, pIC50 equals minus log to base ten of the concentration in mol/L.

Completed entries (count: 3):
{"structure notation": "CO[C@@H]1C[C@]23C[C@@](C)(O)[C@H](CC[C@H]2[C@](C)(C2=CO[C@H](OC)C(C)(C)C2=O)O1)[C@H]3O", "target under test": "Tyrosine-protein phosphatase non-receptor type 1 (Homo sapiens, UniProt P18031)", "test readout": "pIC50", "measured value": 4.70}
{"structure notation": "CO[C@H]1C[C@]23C[C@@](C)(O)[C@H](CC[C@H]2[C@](C)(C2=CO[C@H](OC)C(C)(C)C2=O)O1)[C@H]3O", "target under test": "Tyrosine-protein phosphatase non-receptor type 1 (Homo sapiens, UniProt P18031)", "test readout": "pIC50", "measured value": 4.78}
{"structure notation": "CO[C@@H]1O[C@H]2O[C@@H]3C[C@]45C[C@@](C)(O)[C@H](CC[C@H]4[C@@](C)(O3)[C@H]2CC1(C)C)[C@H]5O", "target under test": "Tyrosine-protein phosphatase non-receptor type 1 (Homo sapiens, UniProt P18031)", "test readout": "pIC50", "measured value": 4.37}

Consider the additional compound presented here.
*Q* Provide value of pIC50 for this record tested with Tyrosine-protein phosphatase non-receptor type 1 (Homo sapiens, UniProt P18031): CC1=C[C@@H]2O[C@@]3(C)[C@@H]4C[C@H](O)[C@H]1[C@]24C[C@@H](O)[C@@]1(O)[C@H]3[C@@H]2O[C@@H]2C1(C)C
*A* 4.61
